tested on: DU-145; assay: NCI tumour cell line growth inhibition, 48 h
Calls of active or inactive are those of the source. Rule as the data show it: active = GI50 up to about 1.1 µM and inactive = higher. Residues, ends and D or L forms follow the SMILES beside them. *: point of attachment. Boc = CC(C)(C)OC(=O)*; Bn = c1ccc(C*)cc1
Choose the fitting class; nothing outside active, inactive is accepted.

Below are worked cases with known answers.
| compound | label-class |
| --- | --- |
| CS/C1=C(\c2ccc(C)cc2)N(c2ccccc2)C(=O)C(=O)N(c2ccccc2)/C(c2ccc(C)cc2)=C(/SC)SS1 | inactive |
| O=C(Cn1ccnc1[N+](=O)[O-])N(CCO)CCO | inactive |
| O=c1oc2ccc3ccccc3c2cc1-c1nnc(-c2ccc([N+](=O)[O-])cc2)[nH]1 | inactive |
| c1ccc2c(c1)Nc1nc3nonc3nc1N2 | inactive |
| C/C(=N\Nc1nc2ccccc2[nH]1)c1ccncn1 | active |
| CCCCSC1=N/C(=C\c2ccc(N(C)C)cc2)C(=O)N1 | inactive |
| CCCCCCCCC/C=C1\CC(CO)(COC(=O)c2ccccc2)OC1=O (stereo not drawn) | inactive |
| COc1ccc(/C=C/C(=O)OC2CC34CCNC35CC(OC5(OC)C2OC)c2ccc(OC)c(O)c24)cc1O (stereo not drawn) | inactive |

Can you look up the reported call for CN(C)/N=C1\CC(c2ccccc2)C(C#N)(C#N)C1(C#N)C#N (stereo not drawn) for me? inactive

Would you mind telling me which call this test gave Cc1ccccc1CN1CC2=C(CCN(Cc3ccccc3)C2=O)N2CCN=C12 ? inactive

Given C=CCN1C(=O)/C(=C/c2ccco2)N=C1SC1OC(COC(C)=O)C(OC(C)=O)C(OC(C)=O)C1OC(C)=O (stereo not drawn) , state the outcome it received in this test. inactive

Hi team, can someone confirm the assay call for CC(C)=CCc1cc2c(cc1O)OC[C@H]1c3cc4c(cc3O[C@@H]21)OCO4 ? inactive

Could you kindly confirm the outcome this assay logged for CC(C)OCC1CC(CC(=O)Nc2nncs2)C(=O)O1 (stereo not drawn) ? inactive

Answer briefly: the call reported for CN(C)c1ccc(C(c2ccc(Cl)cc2)c2ccc(N(C)C)cc2)cc1 in this assay. inactive

For CC(C)Oc1c(O)c2c3c(oc(=O)n3C=CC2c2ccccc2F)c1OC(C)C (stereo not drawn) , which call appears in the assay record? inactive

Test call, this compound: S=c1[nH]nc(Cn2c3ccc(Br)cc3c3nc4ccccc4nc32)n1C1CCCCC1 inactive

Hi, do you know how COC(=O)C1CC2CC1C1C2SC(F)(F)C1(F)F (stereo not drawn) came out in this test? inactive

Can you look up the reported call for COC(CN(C(=O)c1ccccc1)C1CCC2(SCCS2)c2[nH]c3ccccc3c21)OC (stereo not drawn) for me? inactive

Record lookup: outcome of this test for N#Cc1cc(N(CCCl)CCCl)c([N+](=O)[O-])cc1[N+](=O)[O-] ? inactive

Record lookup: outcome of this test for Cc1occc(=O)c1O ? inactive

# fetch the recorded call for CN(C)C(=O)OC(Cn1cncn1)(Cn1cncn1)c1ccc(Cl)cc1Cl here inactive

Tell me the assay call for O=C1NC(=O)C(c2c[nH]c3cc(Br)ccc23)=C1c1cn(C(c2ccccc2)(c2ccccc2)c2ccccc2)cn1 please. inactive

Please indicate how the test categorized CNC(=O)C(CC(C)C)NC(=O)C(C)NC(=O)C(Cc1ccc(OCc2ccccc2)cc1)NC(=O)C(COCc1ccccc1)NC(=O)OC(C)(C)C (stereo not drawn) (Boc-S(Bn)Y(Bn)AL-NHMe; configuration not given here) . inactive

Assay outcome for COc1ccc(-c2nc(-c3cnccn3)n(COCCO)n2)cc1 : what was it? inactive

Fill in: this test's call for CCOC(=O)n1ccc2c(C(=O)OC)c(C(=O)OC)cc(/C(=C/C(=O)OC)C(=O)OC)c21 is ___ inactive

// data source = ChEMBL document CHEMBL1201862
